Target: PAK4 (human)
Assay: radiometric filter-binding kinase assay, Kinase HotSpot
Details: compound 0.5 µM; ATP 10 µM
Readout: residual activity (%)

1) N#C/C(=C(/N)Sc1ccc(N)cc1)c1ccccc1C(F)(F)F	99.4
2) Cc1ccc(Nc2nccc(N(C)c3ccc4c(C)n(C)nc4c3)n2)cc1S(N)(=O)=O	92
3) COc1ccc2c(c[n+](C)c3c4cc5c(cc4ccc23)OCO5)c1OC	99.5
4) CCC(=O)Nc1ccc2ncnc(Nc3cccc(Br)c3)c2c1	105
5) CNc1cc2c(Nc3cccc(Br)c3)ncnc2cn1	93
6) COc1ccc(COc2ccc(Cc3cnc(N)nc3N)cc2OC)cc1	101
7) N#CC(C#N)=C(N)/C(C#N)=C/c1ccc(O)cc1	85.6
8) CCN(CC)C(=O)c1ccc(Nc2nc(OCC3CCCCC3)c3nc[nH]c3n2)cc1	51.5
9) Cc1ccc(NC2=CC(=O)c3sc(C)nc3C2=O)cc1	105
10) COc1cc2ncnc(Nc3cccc(Cl)c3)c2cc1OC	76.5
11) Nc1cccc(-c2cc3c(Oc4cccc(O)c4)ncnc3[nH]2)c1	99.8

###

Target: GRK4 (human) (UniProt P32298)
Sequence (P32298 whole entry, looked up): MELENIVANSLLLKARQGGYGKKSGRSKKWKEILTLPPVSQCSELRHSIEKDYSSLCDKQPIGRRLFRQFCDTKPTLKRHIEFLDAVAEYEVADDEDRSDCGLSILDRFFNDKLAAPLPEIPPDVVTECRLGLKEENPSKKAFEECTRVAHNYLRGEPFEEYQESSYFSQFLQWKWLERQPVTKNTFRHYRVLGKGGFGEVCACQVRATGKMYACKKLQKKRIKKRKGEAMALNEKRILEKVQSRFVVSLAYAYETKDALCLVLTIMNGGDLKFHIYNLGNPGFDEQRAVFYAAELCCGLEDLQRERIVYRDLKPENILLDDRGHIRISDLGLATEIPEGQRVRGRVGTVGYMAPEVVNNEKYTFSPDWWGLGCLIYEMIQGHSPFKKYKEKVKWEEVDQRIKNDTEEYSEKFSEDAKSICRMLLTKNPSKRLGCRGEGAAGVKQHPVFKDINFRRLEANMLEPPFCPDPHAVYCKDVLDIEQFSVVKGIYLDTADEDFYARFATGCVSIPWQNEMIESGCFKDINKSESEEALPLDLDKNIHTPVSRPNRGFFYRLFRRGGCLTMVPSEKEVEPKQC
Experiment: radiometric filter-binding kinase assay, Kinase HotSpot
Settings: compound 0.5 µM; ATP 10 µM
Readout: residual activity (%)

1) CCCC(=O)Oc1ccc2[nH]c(C(=O)c3cc4ccccc4[nH]3)cc2c1	93.7
2) COc1ccc(COc2ccc(Cc3cnc(N)nc3N)cc2OC)cc1	106
3) N#CC(C#N)=C(N)/C(C#N)=C/c1ccc(O)cc1	99.6
4) O=C1NC(=O)C(c2cn(CCCn3ccnc3)c3ccccc23)=C1Nc1ccccc1	91.6
5) Cc1ccc(Nc2nccc(N(C)c3ccc4c(C)n(C)nc4c3)n2)cc1S(N)(=O)=O	91.7

###

Target: CAMK2B (human) (UniProt Q13554)
Sequence (Q13554 whole entry, looked up): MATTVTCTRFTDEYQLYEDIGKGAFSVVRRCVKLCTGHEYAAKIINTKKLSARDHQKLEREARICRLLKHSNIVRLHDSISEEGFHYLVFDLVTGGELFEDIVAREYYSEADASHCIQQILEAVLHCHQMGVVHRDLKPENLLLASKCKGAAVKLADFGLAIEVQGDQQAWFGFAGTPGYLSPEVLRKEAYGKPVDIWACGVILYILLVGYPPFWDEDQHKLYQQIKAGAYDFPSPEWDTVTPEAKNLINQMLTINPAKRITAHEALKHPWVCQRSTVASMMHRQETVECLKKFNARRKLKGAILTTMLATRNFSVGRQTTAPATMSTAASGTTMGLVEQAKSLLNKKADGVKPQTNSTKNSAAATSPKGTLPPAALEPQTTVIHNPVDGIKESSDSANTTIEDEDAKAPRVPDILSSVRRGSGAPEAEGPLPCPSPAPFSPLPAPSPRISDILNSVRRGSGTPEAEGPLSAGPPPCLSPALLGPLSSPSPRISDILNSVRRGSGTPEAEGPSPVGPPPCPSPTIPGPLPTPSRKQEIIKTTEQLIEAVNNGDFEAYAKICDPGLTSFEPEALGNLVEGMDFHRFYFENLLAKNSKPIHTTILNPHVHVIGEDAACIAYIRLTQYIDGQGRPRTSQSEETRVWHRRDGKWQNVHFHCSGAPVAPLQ
Test: radiometric filter-binding kinase assay, Kinase HotSpot
Settings: compound 0.5 µM; ATP 10 µM
Readout: residual activity (%)

1. CCN(CC)CCNC(=O)c1c(C)[nH]c(/C=C2\C(=O)Nc3ccc(F)cc32)c1C	46.7
2. Cc1[nH]c(/C=C2\C(=O)Nc3ccc(S(=O)(=O)N(C)c4cccc(Cl)c4)cc32)c(C)c1C(=O)N1CCN(C)CC1	89.8
3. O=c1cc(N2CCOCC2)oc2c1ccc1ccccc12	98.1
4. O=C1Nc2ccc(Cl)cc2/C1=C/c1cc(Cl)c(O)c(Cl)c1	92
5. COc1ccc2c(c[n+](C)c3c4cc5c(cc4ccc23)OCO5)c1OC	98.9

###

Target: UniProt:P41743
Sequence (P41743 whole entry, looked up): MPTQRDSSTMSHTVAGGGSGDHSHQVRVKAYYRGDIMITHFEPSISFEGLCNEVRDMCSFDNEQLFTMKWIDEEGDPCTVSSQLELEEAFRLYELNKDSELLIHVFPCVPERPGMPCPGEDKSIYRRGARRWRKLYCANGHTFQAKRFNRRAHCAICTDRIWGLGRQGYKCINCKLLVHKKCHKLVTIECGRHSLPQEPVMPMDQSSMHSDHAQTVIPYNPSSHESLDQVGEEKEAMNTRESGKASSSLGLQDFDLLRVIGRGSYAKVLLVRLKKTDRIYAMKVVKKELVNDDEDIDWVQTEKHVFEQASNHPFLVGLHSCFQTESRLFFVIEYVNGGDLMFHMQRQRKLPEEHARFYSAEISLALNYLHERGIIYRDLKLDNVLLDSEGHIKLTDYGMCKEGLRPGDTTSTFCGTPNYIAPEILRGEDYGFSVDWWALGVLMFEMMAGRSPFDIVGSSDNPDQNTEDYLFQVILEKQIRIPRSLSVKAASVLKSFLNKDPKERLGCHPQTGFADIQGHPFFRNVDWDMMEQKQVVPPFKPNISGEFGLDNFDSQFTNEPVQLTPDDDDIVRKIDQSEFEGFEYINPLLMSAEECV
Experiment: radiometric filter-binding kinase assay, Kinase HotSpot
Conditions: compound 0.5 µM; ATP 10 µM
Reported residual activity by item:
Readout: residual activity (%)

1) CNC(=O)c1cc(Oc2ccc(NC(=O)Nc3ccc(Cl)c(C(F)(F)F)c3)cc2)ccn1	89.9
2) Cc1ccc(NC2=CC(=O)c3sc(C)nc3C2=O)cc1	96.9
3) Nc1ncnc2c1c(-c1ccc(Oc3ccccc3)cc1)cn2C1CCCC1	103
4) CCOC(=O)c1c(C)[nH]c(/C=C2\C(=O)Nc3ccccc32)c1C	92.9
5) O=C(Nc1cccc(Nc2nccc(Nc3cccc(C(F)(F)F)c3)n2)c1)C1CC1	91.3
6) O=c1cc(N2CCOCC2)oc2c1ccc1ccccc12	95.5
7) Nc1ccc2ncnc(NCCc3ccc(Oc4ccccc4)cc3)c2c1	103
8) CCC(=O)Nc1ccc2ncnc(Nc3cccc(Br)c3)c2c1	106
9) O=S(=O)(c1cccc2cnccc12)N1CCCNCC1	87.2
10) O=C1NC(=O)C(c2cn(CCCn3ccnc3)c3ccccc23)=C1Nc1ccccc1	90.7
11) c1ccc(-c2n[nH]cc2-c2ccnc3ccccc23)nc1	99

###

Below, each entry is listed with its recorded residual activity.
Molecular target: MAPK14 (human) (UniProt Q16539)
Sequence (Q16539 whole entry, looked up): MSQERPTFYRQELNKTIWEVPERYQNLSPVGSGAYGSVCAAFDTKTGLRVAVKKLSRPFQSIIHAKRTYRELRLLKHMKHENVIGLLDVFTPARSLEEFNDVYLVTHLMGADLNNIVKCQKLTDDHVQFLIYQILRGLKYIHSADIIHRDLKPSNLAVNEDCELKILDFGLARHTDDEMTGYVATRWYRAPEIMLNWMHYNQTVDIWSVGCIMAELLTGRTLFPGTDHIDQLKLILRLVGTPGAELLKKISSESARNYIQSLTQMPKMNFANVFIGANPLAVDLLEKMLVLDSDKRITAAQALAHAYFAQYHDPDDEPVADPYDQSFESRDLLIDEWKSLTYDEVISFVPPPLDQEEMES
Assay: radiometric filter-binding kinase assay, Kinase HotSpot
Details: compound 0.5 µM; ATP 10 µM
Readout: residual activity (%)

1. Nc1ncnc2c1c(-c1ccc(Oc3ccccc3)cc1)cn2C1CCCC1	76.3
2. CC#CC(=O)Nc1cc2c(Nc3ccc(F)c(Cl)c3)ncnc2cn1	101
3. Cc1[nH]c(/C=C2\C(=O)Nc3ccc(S(=O)(=O)N(C)c4cccc(Cl)c4)cc32)c(C)c1C(=O)N1CCN(C)CC1	86.2
4. CCN(CC)C(=O)c1ccc(Nc2nc(OCC3CCCCC3)c3nc[nH]c3n2)cc1	94.7
5. O=C1NC(=O)C(c2cn(CCCn3ccnc3)c3ccccc23)=C1Nc1ccccc1	88.3
6. CCCC(=O)Oc1ccc2[nH]c(C(=O)c3cc4ccccc4[nH]3)cc2c1	102
7. O=c1cc(N2CCOCC2)oc2c1ccc1ccccc12	96.7
8. CO[C@H]1CC2CC[C@@H](C)[C@@](O)(O2)C(=O)C(=O)N2CCCC[C@H]2C(=O)OC([C@H](C)C[C@@H]2CC[C@@H](O)[C@H](OC)C2)CC(=O)[C@H](C)/C=C(\C)[C@@H](O)[C@@H](OC)C(=O)[C@H](C)C[C@H](C)/C=C/C=C/C=C/1C (stereo not given in full)	99.1
9. O=C1NC(=O)/C(=C/c2ccc3c(c2)OC(F)(F)O3)S1	86.7
10. CCOC(=O)c1c(C)[nH]c(/C=C2\C(=O)Nc3ccccc32)c1C	134
11. O=S(=O)(c1cccc2cnccc12)N1CCCNCC1	104
12. COc1ccc(COc2ccc(Cc3cnc(N)nc3N)cc2OC)cc1	106
13. c1ccc(-c2n[nH]cc2-c2ccnc3ccccc23)nc1	96
14. CC(C)N(CCC(=O)c1ccc2ccccc2c1)Cc1ccccc1	94.4
15. CNc1cc2c(Nc3cccc(Br)c3)ncnc2cn1	90
16. Nc1cccc(-c2cc3c(Oc4cccc(O)c4)ncnc3[nH]2)c1	98.1
17. Nc1ncnc2[nH]nc(Nc3ccc(F)cc3)c12	79.5
18. N#C/C(=C(/N)Sc1ccc(N)cc1)c1ccccc1C(F)(F)F	96
19. CCN(CC)CCNC(=O)c1c(C)[nH]c(/C=C2\C(=O)Nc3ccc(Cl)cc32)c1C	103
20. CCC(=O)Nc1ccc2ncnc(Nc3cccc(Br)c3)c2c1	82.8
21. O=C(Nc1cccc(Nc2nccc(Nc3cccc(C(F)(F)F)c3)n2)c1)C1CC1	91.5
22. CCN(CC)CCNC(=O)c1c(C)[nH]c(/C=C2\C(=O)Nc3ccc(F)cc32)c1C	105
23. N#CC(C#N)=C(N)/C(C#N)=C/c1ccc(O)cc1	104
24. O=C1NC(=O)c2c1c1c3ccccc3n3c1c1c2c2ccccc2n1C1CCC3O1	102
25. Nc1ccc2ncnc(NCCc3ccc(Oc4ccccc4)cc3)c2c1	95.7
26. CNC(=O)c1cc(Oc2ccc(NC(=O)Nc3ccc(Cl)c(C(F)(F)F)c3)cc2)ccn1	40.2
27. CC[n+]1c(/C=C/N(C)c2ccccc2)n(-c2ccccc2)c2ccc(-c3nc4ccccc4s3)cc21	94.9
28. Cc1ccc(Nc2nccc(N(C)c3ccc4c(C)n(C)nc4c3)n2)cc1S(N)(=O)=O	91.2
29. Cc1ccc(S(=O)(=O)/C=C/C#N)cc1	97.4
30. CC(=O)c1ccc(N2CCOCC2)cc1O	97.1
31. O=C1Nc2ccc(Cl)cc2/C1=C/c1cc(Cl)c(O)c(Cl)c1	74.6
32. c1ccc(-c2n[nH]c3c2oc2ccccc23)cc1	102
33. COc1cc2ncnc(Nc3cccc(Cl)c3)c2cc1OC	107
34. COc1ccc2c(c[n+](C)c3c4cc5c(cc4ccc23)OCO5)c1OC	94.1
35. Cc1ccc(NC2=CC(=O)c3sc(C)nc3C2=O)cc1	92.4

###

Biological target: MLTK (human) (UniProt Q9NYL2)
Sequence (Q9NYL2 whole entry, looked up): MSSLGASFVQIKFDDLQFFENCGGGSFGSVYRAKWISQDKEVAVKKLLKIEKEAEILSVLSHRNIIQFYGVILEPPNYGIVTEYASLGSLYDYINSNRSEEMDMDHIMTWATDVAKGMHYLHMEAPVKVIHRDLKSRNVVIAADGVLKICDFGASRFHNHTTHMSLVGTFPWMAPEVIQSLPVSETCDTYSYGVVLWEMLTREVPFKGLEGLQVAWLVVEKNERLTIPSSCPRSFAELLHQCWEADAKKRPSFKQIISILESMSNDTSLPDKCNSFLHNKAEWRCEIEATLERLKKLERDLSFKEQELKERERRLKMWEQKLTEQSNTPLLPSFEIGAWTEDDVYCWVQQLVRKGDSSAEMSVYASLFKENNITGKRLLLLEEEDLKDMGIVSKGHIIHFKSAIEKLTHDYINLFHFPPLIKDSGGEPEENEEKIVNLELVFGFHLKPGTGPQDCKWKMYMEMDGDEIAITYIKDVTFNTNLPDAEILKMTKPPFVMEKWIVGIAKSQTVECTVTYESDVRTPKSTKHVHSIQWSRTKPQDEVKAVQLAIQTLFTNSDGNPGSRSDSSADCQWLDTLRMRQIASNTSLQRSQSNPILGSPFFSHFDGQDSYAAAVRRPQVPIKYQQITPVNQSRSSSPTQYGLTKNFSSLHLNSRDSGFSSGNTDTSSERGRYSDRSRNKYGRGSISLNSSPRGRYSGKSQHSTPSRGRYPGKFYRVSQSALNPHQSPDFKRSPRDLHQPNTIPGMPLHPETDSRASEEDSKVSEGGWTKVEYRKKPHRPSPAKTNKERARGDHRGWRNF
Assay: radiometric filter-binding kinase assay, Kinase HotSpot
Settings: compound 0.5 µM; ATP 10 µM
Listed compounds paired with reported residual activity
Readout: residual activity (%)

1) Cc1ccc(S(=O)(=O)/C=C/C#N)cc1	94.7
2) O=C(Nc1cccc(Nc2nccc(Nc3cccc(C(F)(F)F)c3)n2)c1)C1CC1	110
3) COc1ccc2c(c[n+](C)c3c4cc5c(cc4ccc23)OCO5)c1OC	94.7
4) Cc1ccc(Nc2nccc(N(C)c3ccc4c(C)n(C)nc4c3)n2)cc1S(N)(=O)=O	96.9
5) N#CC(C#N)=C(N)/C(C#N)=C/c1ccc(O)cc1	95.7
6) O=S(=O)(c1cccc2cnccc12)N1CCCNCC1	101
7) CCOC(=O)c1c(C)[nH]c(/C=C2\C(=O)Nc3ccccc32)c1C	92.7
8) c1ccc(-c2n[nH]cc2-c2ccnc3ccccc23)nc1	78
9) CC(C)N(CCC(=O)c1ccc2ccccc2c1)Cc1ccccc1	90.5
10) O=C1NC(=O)c2c1c1c3ccccc3n3c1c1c2c2ccccc2n1C1CCC3O1	89.7
11) Cc1[nH]c(/C=C2\C(=O)Nc3ccc(S(=O)(=O)N(C)c4cccc(Cl)c4)cc32)c(C)c1C(=O)N1CCN(C)CC1	97.4
12) Oc1cccc(-c2nc(N3CCOCC3)c3oc4ncccc4c3n2)c1	96.2
13) CC#CC(=O)Nc1cc2c(Nc3ccc(F)c(Cl)c3)ncnc2cn1	85.8
14) O=C1NC(=O)/C(=C/c2ccc3c(c2)OC(F)(F)O3)S1	97.6
15) Cc1ccc(NC2=CC(=O)c3sc(C)nc3C2=O)cc1	94
16) Nc1ccc2ncnc(NCCc3ccc(Oc4ccccc4)cc3)c2c1	102
17) O=C1NC(=O)C(c2cn(CCCn3ccnc3)c3ccccc23)=C1Nc1ccccc1	104
18) CC[n+]1c(/C=C/N(C)c2ccccc2)n(-c2ccccc2)c2ccc(-c3nc4ccccc4s3)cc21	93.8
19) CCC(=O)Nc1ccc2ncnc(Nc3cccc(Br)c3)c2c1	96
20) CNc1cc2c(Nc3cccc(Br)c3)ncnc2cn1	82.3
21) N#C/C(=C(/N)Sc1ccc(N)cc1)c1ccccc1C(F)(F)F	105
22) CNC(=O)c1cc(Oc2ccc(NC(=O)Nc3ccc(Cl)c(C(F)(F)F)c3)cc2)ccn1	16.7
23) COc1ccc(COc2ccc(Cc3cnc(N)nc3N)cc2OC)cc1	97.4
24) CO[C@H]1CC2CC[C@@H](C)[C@@](O)(O2)C(=O)C(=O)N2CCCC[C@H]2C(=O)OC([C@H](C)C[C@@H]2CC[C@@H](O)[C@H](OC)C2)CC(=O)[C@H](C)/C=C(\C)[C@@H](O)[C@@H](OC)C(=O)[C@H](C)C[C@H](C)/C=C/C=C/C=C/1C (some centres undefined)	103
